Test system: Staphylococcus aureus
PROTOCOL: Antimicrobial activity against Staphylococcus aureus
Type: functional, organism-based
Calls of active or inactive are those of the source. The rule behind the calls is not given here.
PARAMETER: Activity

Query (compound): CCOC(=O)C1=NOC(c2ccc(N3CCN(C(=O)Nc4ccccc4)CC3)cc2)C1 (stereo unspecified) ; field requested: Activity inactive

Query (compound): NCC1=NOC(c2ccc(N3CCOCC3)cc2)C1 (stereo unspecified) ; field requested: Activity inactive

Query (compound): NNC(=O)C1=NOC(c2ccc(N3CCN(Cc4ccccc4)CC3)cc2)C1 (stereo unspecified) ; field requested: Activity inactive

Query (compound): CCOC(=O)C1=NOC(c2ccc(N3CCNCC3)cc2)C1 (stereo unspecified) ; field requested: Activity inactive

Query (compound): CCOC(=O)C1=NOC(c2ccc(-c3ccco3)cc2)C1 (stereo unspecified) ; field requested: Activity inactive

Query (compound): CCOC(=O)C1=NOC(c2ccc(-c3ccccc3)cc2)C1 (stereo unspecified) ; field requested: Activity inactive

Others:
Query (compound): CCCCOC(=O)N1CCN(c2ccc(C3CC(C(=O)OCC)=NO3)cc2)CC1 (stereo unspecified) ; field requested: Activity inactive

Query (compound): NCC1=NOC(c2ccc(N3CCN(Cc4ccccc4)CC3)cc2)C1 (stereo unspecified) ; field requested: Activity inactive

Query (compound): C=CCN1CCN(c2ccc(C3CC(C(=O)OCC)=NO3)cc2)CC1 (stereo unspecified) ; field requested: Activity inactive

Query (compound): CCOC(=O)C1=NOC(c2ccc(-c3noc(-c4ccccc4)n3)cc2)C1 (stereo unspecified) ; field requested: Activity inactive

Query (compound): CCOC(=O)C1=NOC(c2ccc(N3CCN(C(=O)OC(C)(C)C)CC3)cc2)C1 (stereo unspecified) ; field requested: Activity inactive

Taken from ChEMBL document CHEMBL1153861.
